test system: LRO4; assay: Phage ELISA, binding of phage clones to coated LRO4; set-up: species or system murine; conditions: Table 2B, Ph.D.7C7 library clones; 10^10 pfu/ml; OD 405-490 nm
measuredProperty: Binding of phages to LR04 (OD)
Write down the numeric answer in OD and omit the unit.

Below are worked cases with known answers.
>>> valuemeasured("NNQNMPL [Cb9]")
0.7
>>> valuemeasured("NNWNMPL [Ca1, Ca7]")
0.8
>>> valuemeasured("NNYNMPL [Cb589]")
0.8

Now examine the next entry.
Data request: Please list Binding of phages to LR04 recorded for the substance NNSKMRL [Ca2]
Data returned: 0.8

The measurements presented in this section are drawn from patent US20150056209A1.
